test: chemical genetic growth profiling, strain panel (AID 1159580);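 note: tested at 20 µM; growth read once vehicle control cultures reached saturation at 30 °C; 1 = growth at the plate median or of vehicle wells; lower values mean less growth of the strain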; conditions: S. cerevisiae deletion strains, growth OD, locus YOR080W, strain dia2
Hit rate of the full screen: of about 5,500 compounds, about 2,000 (36%) were called active. Not shown: some 18% with an inconclusive outcome. Cut-off read from the data, not from the text of the source: active = normalized growth mostly below about 0.91 (no sharp cut-off); inconclusive = no clear call, values can overlap the other calls; inactive = mostly above about 0.92. The list shows a part of the results.
Respond with a class label; see 1 (yes) (active), 0 (no) (inactive)

>>> group("CNNC")
"0 (no)"
>>> group("CC(CCC(=O)O)[C@H]1CCC2C3C(=O)C[C@@H]4CC(=O)CC[C@]4(C)C3CC(=O)[C@@]21C (stereo partly specified)")
"0 (no)"
>>> group("CC(CCc1ccccc1)NCC(O)c1ccc(O)c(C(N)=O)c1 (stereo unspecified)")
"0 (no)"

Outcome? CC(C)=CCCC(C)[C@@H]1CC[C@]2(C)C3=C(CC[C@@]12C)C1(C)CC[C@H](O)C(C)(C)C1CC3 (stereo partly specified)
1 (yes)

Test call, this compound: "CNCCCC12CCC(c3ccccc31)c1ccccc12"
0 (no)
